System: RPMI-8226 leukemia
Test: NCI-60 one-dose screen, 48 h
Details: 10 µM
This is part of a sample that, as a whole, favours compounds with a hit. Of some 83,000 tested, about 20% had one in any assay. Activity calls are given as the source filed them. Rule for the calls: active = growth percent below 10; inactive = the rest.
Labels: TRUE = active, FALSE = inactive

compound | classification
CCCCCCCCCCCCCCCCN(C(C)c1ccccc1)S(=O)(=O)c1ccc(OC)c(N)c1 (stereo unspecified) | FALSE
CCOC(=O)C1(CC(C)C)CCOC1=O (stereo unspecified) | FALSE
CCC1(C(C)C)NC(=O)NC1=O (stereo unspecified) | FALSE
CCOC(=O)c1ccc(NC(=O)Nc2ncc(Cl)cc2Cl)cc1 | FALSE
CN1CCC(CNc2cc(C3(C(=O)Nc4cc(C(=O)Nc5ccc(Cl)c(C(F)(F)F)c5)ccc4F)CC3)ncn2)CC1 | TRUE
C[N+](C)(C)c1ncnc2nc[nH]c12 | FALSE
COc1ccc(-c2ccc3cc(C(=O)Nc4ccc(O)c(C(=O)/C=C/c5cc(OC)c(OC)c(OC)c5)c4)ccc3c2)cc1 | FALSE
O=[N+]([O-])c1cccc(N=Cc2ccc3c(c2)OCO3)c1 | FALSE
CC1(C)N=C(N)N=C(N)N1c1ccc(CCc2ccccc2)c(Cl)c1 | FALSE
COc1ccc2c(c1)C(=O)c1c-2c(=O)n(CCCN(C)C)c2cc(OC)c(OC)cc12 | FALSE
O=C1/C(=C\c2cn(C(=O)c3ccc(Cl)cc3)c3ccccc23)c2ccccc2N1C(=O)c1ccc(Cl)cc1 | FALSE
c1ccc2c(c1)oc1c3c(ccc12)NCCC3 | FALSE
Nc1ccc2c(c1)C1(CCC2)NC(=O)NC1=O (stereo unspecified) | FALSE
CCOC(=O)N1C/C(=C/c2ccc(OC)cc2)C(=O)/C(=C/c2ccc(OC)cc2)C1 | TRUE
O=c1[nH]c(-c2ccc(Cl)cc2)nc2sc3c(c12)CCCC3 | FALSE
Cc1nc2c(c(=O)[nH]1)OCN(Cc1ccccc1)C2 | FALSE
CC(C)=CCc1cc(O)cc2c1OC(C=C(C)C)C1=C2C(=O)C2=C(C1=O)S(=O)(=O)CCN2 (stereo unspecified) | FALSE
CCCCCCCC(C)NCCO (stereo unspecified) | FALSE
O=C(Nc1ccc(Cl)cc1)N1NC(c2ccc(Cl)cc2)C=C1c1ccccc1 (stereo unspecified) | FALSE
N#Cc1cccc(OCc2nc(N)nc(N)c2-c2ccc(Cl)c(Cl)c2)c1 | FALSE
Nc1ncn(C2OC(CO)C(O)C2O)c(=O)n1 (stereo unspecified) | TRUE
COc1cc(Cl)cc(-c2nn(-c3cccc(NC(=O)c4ccc(N5CCOCC5)c(C(F)(F)F)c4)c3)cc2-c2ccncc2)c1 | FALSE
O=C1OCC2=C1C(c1cccc(Cl)c1)c1cc3c(cc1N2CCO)CCC3 (stereo unspecified) | FALSE
Cc1occc1-c1nnc(SCC(=O)c2ccc(NC(=O)CC(C)C)cc2)o1 | FALSE
COc1ccc(OC)c2c1C(=O)CC2C (stereo unspecified) | FALSE
Cc1ccc(NC(=O)Nc2c(Cl)cccc2Cl)cn1 | FALSE

* * *

Test system: BT-549 breast
Assay: NCI-60 one-dose screen, 48 h (100 = growth as untreated, 0 = no growth, -100 = all killed)
Conditions: 10 µM
Description: Growth inhibition of the BT-549 human tumor cell line is measured as a screen for anti-cancer activity. Cells are grown in 96 well plates and exposed to the test compound for 48 hours. Compounds are tested at a single concentration, which is 10^-5 M for most compounds. The reported endpoint is percent growth (GI% or GIPRCNT), where numbers from 0 - 100% represent growth inhibition, and numbers from -100% - 0 represent cell death. For example, a value of 40 represents 60% growth inhibition. […]
This is part of a sample that, as a whole, favours compounds with a hit. Of some 83,000 tested, about 20% had one in any assay.
Each entry below carries its reported growth.
measuredMetric: growth (%)

structureNotation | recordedValue
COc1ccc(C(=O)/C=C/c2cc(-c3cc(OC)c(OC)c(OC)c3)n[nH]2)cc1 | 14.4
N#Cc1ncc(-c2cc(F)c(F)c(F)c2)c(NC2CCCCCC2)n1 | 100
C#Cc1ccc(-n2c(/C=C/c3ccc4ccccc4c3)nc3ncccc3c2=O)cc1 | 52.4
O=C(Nc1cccc(Br)c1)c1cc(=O)[nH]c2ccccc12 | 82.1
Nc1ccc2cc(S(=O)(=O)O)cc(O)c2c1N=Nc1ccc(F)cc1 | 102
CCN(CCCCCCCCCCN1CC(=O)N(CCCCCCCCCCN(CC)Cc2ccccc2OC)CC1=O)Cc1ccccc1OC | -50.7
COc1cccc(-c2cc(-c3cccc(NS(C)(=O)=O)c3)nc(N)c2C#N)c1O | 58.1

* * *

Tested on: NCI-H460 lung
Assay: NCI-60 one-dose screen, 48 h (100 = growth as untreated, 0 = no growth, -100 = all killed)
Conditions: 10 µM
Compounds without any hit were thinned out: in the full panel of roughly 83,000, 20% have a hit.

molecule | growth [%]
COc1cc(Nc2ccnc(NCCNc3ccnc4cc(Cl)ccc34)n2)cc(OC)c1 | 27.8
O=C(O)CN1C(=O)c2cccc3cccc(c23)C1=O | 110
COc1cc(NC(=O)CCSc2nc3ccc(C)cc3c(=O)n2Cc2ccccc2)cc(OC)c1OC | 48.3
O=C(Nc1ccc(OS(=O)(=O)c2ccccc2)cc1)C12CC3CC(CC(C3)C1)C2 | 35.5
C=C(Cl)[C@@](Cl)(CBr)CC[C@@H](Br)C(C)(C)Cl | -47.7
O=[N+]([O-])c1cccc(N=Cc2ccc3c(c2)OCO3)c1 | 120
COc1ccc(-c2nc(-c3nc4cc(Cl)c(F)cc4[nH]3)c3ccccn23)cc1 | 81.1
CCN(CC)CCCOCCCNc1cc(OC)cc2cccnc12 | 103
CCCN(CCC)CCC(O)c1cc2c(c3ccccc13)CCCC2 (stereo unspecified) | 98.9
Nc1c(C(=O)Nc2cccc(F)c2)sc2nc3c(cc12)C(=O)CCC3 | 11.5
COc1ccc(Cl)cc1-n1nnc(-c2nc3ccccc3[nH]2)c1N | 27.7
Cc1ccc(-c2n[nH]c(=O)c3noc(-c4ccc(C)cc4)c23)cc1 | 17.3
CC(=O)c1cc(Cl)ccc1O | 101
N=C(N)c1ccc(-c2ccc(-c3ccco3)o2)cc1 | 62.8
O=C(Nc1cccc(-n2cc(-c3ccncc3)c(-c3ccc(O)c(Cl)c3)n2)c1)c1cccc(C(F)(F)F)c1 | 17.2
O=C(Nc1cccc(-n2cc(-c3ccncc3)c(-c3cc(O)cc(Cl)c3)n2)c1)c1ccc(N2CCOCC2)c(C(F)(F)F)c1 | -26
CC(C)N(CCNc1nc(C(Cl)(Cl)Cl)nc2cc(Cl)ccc12)C(C)C | -45.6
O=c1[nH]c(-c2ccc(Cl)cc2)nc2sc3c(c12)CCCC3 | 52.2
c1ccc([I+]c2ccccc2)cc1 | 86.5
CC[C@H]1CCC/C=C/[C@@H]2C[C@H](O)C[C@H]2[C@H](O)/C=C/C(=O)O1 | 6.08
COc1cc(-c2nn3c(/C=C4/C(=O)Nc5ccccc54)c(-c4ccc(C)cc4)nc3s2)cc(OC)c1OC | 29
CCC(=O)N1C/C(=C/c2ccc(Cl)cc2)C(=O)/C(=C/c2ccc(Cl)cc2)C1 | -13.8
COc1ccc(C2=Nc3c(C)nn(-c4ccccc4)c3NC(c3ccc(Oc4ccnc5cc(Cl)ccc45)c(OC)c3)C2)cc1 (stereo unspecified) | 81.6
Cc1cc(Cc2cc(C)c(O)c(C)c2)cc(C)c1O | 29.1
COc1ccc(-c2cc(-c3ccc(N(C)C)cc3)c(C#N)c(N3CCCC3)n2)cc1 | 69.9
CN1c2ccccc2[C@]2(Cc3ccccc3)Cc3ccccc3N[C@H]12 | 111
O=C(Nc1ccncc1)C(=O)c1cn(S(=O)(=O)c2cc(Cl)cc(Cl)c2)c2ccccc12 | 87.3
CN1CCC2(CC1)NC(=O)c1c(c3ccc(Cl)c(Cl)c3n1C)C2C#N (stereo unspecified) | 49
Nc1nccc(Nc2ccccc2)n1 | 109
C#Cc1ccc(-n2c(/C=C/c3ccc(C(F)(F)F)cc3)nc3ncccc3c2=O)cc1 | 72.1
Cn1c(N)c(N=Nc2ccc(S(=O)(=O)Nc3nccs3)cc2)c(=O)n(C)c1=O | 109

* * *

Test system: 786-0 renal
Assay: NCI-60 one-dose screen, 48 h (100 = growth as untreated, 0 = no growth, -100 = all killed)
Details: 10 µM
The panel holds about 83,000 compounds, 20% with a hit somewhere; the sample as a whole holds those more often.
Each entry below carries its reported growth.

structureNotation | experimentalTarget | endpointUnit | growth
COc1cc(CNc2ccccc2C(=O)N2CCN(C(=O)c3cc(-c4cc(OC)c(OC)c(OC)c4)n4nc(-c5ccccc5)cc4n3)CC2)cc(OC)c1OC | 786-0 renal | % | 50.8
COc1cc(-c2cc(/C=C/C(=O)c3ccc(Cl)c(Cl)c3)[nH]n2)cc(OC)c1OC | 786-0 renal | % | 69.7
O=c1[nH]c2ccc(Cl)cc2c2ccccc12 | 786-0 renal | % | 49.5
O=C(Nc1cccc(-n2cc(-c3ccncc3)c(-c3ccc(O)c(Cl)c3)n2)c1)c1cc(C(F)(F)F)cc(C(F)(F)F)c1 | 786-0 renal | % | 71.4
